Tested on: Klebsiella pneumoniae
protocol_description: Binding affinity to Klebsiella pneumoniae MGH78578 N-terminal His6-tagged VapC expressed in Escherichia coli BL21(DE3) assessed as increase in RNAase activity measured after 1 hr using fluorophore-labelled RNA by spectrofluorimetric method
The source made the active and inactive calls. The rule behind the calls is not given here. Residues, ends and D or L forms follow the SMILES beside them.
Valid outcomes are listed here; reply with one: active, inactive

Known results for molecules:
>>> category("CSCC[C@H](NC(=O)CN)C(=O)N[C@@H](CCC(=O)O)C(=O)N[C@@H](C)C(=O)N[C@@H](C)C(=O)N[C@@H](CCCNC(=N)N)C(=O)N[C@@H](CCC(N)=O)C(=O)N[C@@H](CC(C)C)C(=O)O (H-GMEAARQL-OH)")
"active"
>>> category("CSCC[C@H](NC(=O)CN)C(=O)N[C@@H](CCC(=O)O)C(=O)N[C@@H](Cc1ccc(O)cc1)C(=O)N[C@@H](CCC(N)=O)C(=O)N[C@@H](CCCNC(=N)N)C(=O)N[C@@H](CCC(N)=O)C(=O)N[C@@H](CC(C)C)C(=O)N[C@@H](CCCNC(=N)N)C(=O)N[C@@H](CCCCN)C(=O)O (H-GMEYQRQLRK-OH)")
"active"
>>> category("CSCC[C@H](NC(=O)CN)C(=O)N[C@@H](CCC(=O)O)C(=O)N[C@@H](Cc1ccc(O)cc1)C(=O)N[C@@H](CCC(N)=O)C(=O)N[C@@H](CCCNC(=N)N)C(=O)N[C@@H](CCC(N)=O)C(=O)N[C@@H](CC(C)C)C(=O)N[C@@H](CCCNC(=N)N)C(=O)O (H-GMEYQRQLR-OH)")
"active"

Recorded call for CSCC[C@H](NC(=O)CN)C(=O)N[C@@H](CCC(=O)O)C(=O)N[C@@H](C)C(=O)N[C@@H](CCC(N)=O)C(=O)N[C@@H](CCCNC(=N)N)C(=O)N[C@@H](CCC(N)=O)C(=O)N[C@@H](CC(C)C)C(=O)O (H-GMEAQRQL-OH) ? active

Same read-out for CSCC[C@H](NC(=O)CN)C(=O)N[C@@H](CCC(=O)O)C(=O)N[C@@H](Cc1ccc(O)cc1)C(=O)N[C@@H](C)C(=O)N[C@@H](CCCNC(=N)N)C(=O)N[C@@H](CCC(N)=O)C(=O)N[C@@H](CC(C)C)C(=O)O (H-GMEYARQL-OH) ? active

Same read-out for CSCC[C@H](NC(=O)CN)C(=O)N[C@@H](CCC(=O)O)C(=O)N[C@@H](Cc1ccc(O)cc1)C(=O)N[C@@H](CCC(N)=O)C(=O)N[C@@H](CCCNC(=N)N)C(=O)N[C@@H](CCC(N)=O)C(=O)N[C@@H](CC(C)C)C(=O)O (H-GMEYQRQL-OH) ? active

Same read-out for NC(=O)NC(=O)CCN1CCC(C(=O)c2ccc(O)cc2)CC1 ? inactive

Same read-out for CCC1Oc2cc(S(=O)(=O)N3CCCC(C(=O)Nc4ccc(F)cc4)C3)c(C)cc2NC1=O (stereo not drawn) ? inactive

---

protocol_description: Binding affinity to Klebsiella pneumoniae MGH78578 N-terminal His6-tagged VapC expressed in Escherichia coli BL21(DE3) by isothermal titration calorimetry
Residues, ends and D or L forms follow the SMILES beside them.
measure_name: pKd
Just the number, please; pKd means minus log10 of the concentration in mol/L.

These recorded examples may help you get a feel for the data.
>>> observed("CCC1Oc2cc(S(=O)(=O)N3CCCC(C(=O)Nc4ccc(F)cc4)C3)c(C)cc2NC1=O (stereo not given)")
7.66
>>> observed("CSCC[C@H](NC(=O)CN)C(=O)N[C@@H](CCC(=O)O)C(=O)N[C@@H](C)C(=O)N[C@@H](CCC(N)=O)C(=O)N[C@@H](CCCNC(=N)N)C(=O)N[C@@H](CCC(N)=O)C(=O)N[C@@H](CC(C)C)C(=O)O (H-GMEAQRQL-OH)")
6.77
>>> observed("CSCC[C@H](NC(=O)CN)C(=O)N[C@@H](CCC(=O)O)C(=O)N[C@@H](Cc1ccc(O)cc1)C(=O)N[C@@H](CCC(N)=O)C(=O)N[C@@H](CCCNC(=N)N)C(=O)N[C@@H](CCC(N)=O)C(=O)N[C@@H](CC(C)C)C(=O)O (H-GMEYQRQL-OH)")
6.96
>>> observed("NC(=O)NC(=O)CCN1CCC(C(=O)c2ccc(O)cc2)CC1")
7.66

Then there is this molecule:
# lookup: pKd of CSCC[C@H](NC(=O)CN)C(=O)N[C@@H](CCC(=O)O)C(=O)N[C@@H](Cc1ccc(O)cc1)C(=O)N[C@@H](C)C(=O)N[C@@H](CCCNC(=N)N)C(=O)N[C@@H](CCC(N)=O)C(=O)N[C@@H](CC(C)C)C(=O)O (H-GMEYARQL-OH) 6.82

Data credit: ChEMBL document CHEMBL4699622
